Biological target: hKv7.2/7.3 (Homo sapiens, UniProt O43525+O43526)
Construct: host or cells: HEK cells, tetracycline-inducible expression
Assay: Kv7.2/7.3 Activation Assay, QPatch planar patch-clamp single concentration screen
Type: cell-based
Settings: increase in current over baseline, Kv7.2/Kv7.3 co-expressing HEK cells, compound concentration 3 μM, steady-state current at end of 2 s pulse to −30 mV
Procedure: The ability of compounds to potentiate K-currents in Kv7.2/7.3 containing HEK cells was assessed using planar patch-clamp on the QPatch automated screening platform. Cell Line: The hKv7.2/7.3 cell line was obtained from Chantest (Cleveland, OH 44128) cat. #CT6147. These HEK cells will express the Kv7.2/7.3 ion channels when induced. […] Potassium channel activity was measured on the QPatch HTX (Sophion Bioscience) using QPlates with 48-wells/plate. […]
experimental endpoint: QPatch Kv7.2/7.3 Activity

// below: answered compounds
- smiles: "CC(C)(O)CC(=O)Nc1nn2ccc(Cl)cc2c1-c1ccc(OC(F)(F)F)cc1"
  experimental endpoint: "QPatch Kv7.2/7.3 Activity"
  measurement: "+ (2.0-3.99 (+))"
- smiles: "C[C@](O)(CC(=O)Nc1nn2ccc(C#N)cc2c1C1CCC1)c1ccccn1"
  experimental endpoint: "QPatch Kv7.2/7.3 Activity"
  measurement: "+ (2.0-3.99 (+))"
- smiles: "C[C@@](O)(CC(=O)Nc1nn2ccc(Cl)cc2c1-c1ccc(F)cc1)C(F)(F)F"
  experimental endpoint: "QPatch Kv7.2/7.3 Activity"
  measurement: "+ (2.0-3.99 (+))"
- smiles: "CC(C)(O)CC(=O)NNc1nn2ccc(C(F)(F)F)cc2c1-c1ccc(F)cc1"
  experimental endpoint: "QPatch Kv7.2/7.3 Activity"
  measurement: "− (<1.2-fold (−))"
- smiles: "C[C@@](O)(CC(=O)Nc1nn2ccc(C(F)(F)F)cc2c1C1CCC1)c1ccccn1"
  experimental endpoint: "QPatch Kv7.2/7.3 Activity"
  measurement: "+ (2.0-3.99 (+))"
- smiles: "CC(C)(C)CC(=O)Nc1nn2ccc(C(F)(F)F)cc2c1C#N"
  experimental endpoint: "QPatch Kv7.2/7.3 Activity"
  measurement: "− (<1.2-fold (−))"

[Q] Look up QPatch Kv7.2/7.3 Activity: C[C@](O)(CC(=O)Nc1nn2ccc(Cl)cc2c1-c1ccc(F)cc1)c1ccccc1
[A] + (2.0-3.99 (+))

[Q] Same read-out for CC(C)[C@H](C)C(=O)Nc1nn2ccc(C#N)cc2c1C1CCC1 ?
[A] + (2.0-3.99 (+))

[Q] Same read-out for C[C@](O)(CC(=O)Nc1nn2ccc(Cl)cc2c1-c1ccc(F)cc1)C(F)(F)F ?
[A] + (2.0-3.99 (+))

[Q] Same read-out for CC(C)(O)CC(=O)Nc1nn2ccc(C(F)(F)F)cc2c1-c1ccc(F)c(F)c1 ?
[A] + (2.0-3.99 (+))

[Q] Same read-out for CC(C)(O)CC(=O)Nc1nn2ccc(Cl)cc2c1-c1ccc(F)cc1 ?
[A] + (2.0-3.99 (+))

###

Molecular target: hKv7.2/7.3 (Homo sapiens, UniProt O43525+O43526)
Construct: host or cells: HEK cells, tetracycline-inducible expression
Experiment: Kv7.2/7.3 Activation Assay, QPatch planar patch-clamp single concentration screen
Format: cell-based
Settings: increase in current over baseline, Kv7.2/Kv7.3 co-expressing HEK cells, compound concentration 3 μM, steady-state current at end of 2 s pulse to −30 mV
Method: The ability of compounds to potentiate K-currents in Kv7.2/7.3 containing HEK cells was assessed using planar patch-clamp on the QPatch automated screening platform. Cell Line: The hKv7.2/7.3 cell line was obtained from Chantest (Cleveland, OH 44128) cat. #CT6147. These HEK cells will express the Kv7.2/7.3 ion channels when induced. […] Potassium channel activity was measured on the QPatch HTX (Sophion Bioscience) using QPlates with 48-wells/plate. […]

- smiles: "CC(C)(C)CC(=O)Nc1nn2ccc(C#N)cc2c1-c1ccc(F)cc1"
  QPatch Kv7.2/7.3 Activity: "+ (2.0-3.99 (+))"
- smiles: "CC(C)(O)CC(=O)Nc1nn2c(Br)cccc2c1C1CCC1"
  QPatch Kv7.2/7.3 Activity: "+ (2.0-3.99 (+))"
- smiles: "C[C@@](O)(CC(=O)Nc1nn2ccc(C#N)cc2c1C1CCC1)c1ccccn1"
  QPatch Kv7.2/7.3 Activity: "+ (2.0-3.99 (+))"
